Taken from paper PMC5540273.

System: PAK2
experimental_context: concentration: 1 μM, replicates: in singlicate; n = 1;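 note: KINOMEscan kinase panel screen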
Labels assigned by %Inh range: low: < 5%; mid: ≥ 5% and < 20%; high: ≥ 20%

Which category does the recorded %Inh put `CNc1nc(-c2ccc3c(N)n[nH]c3c2)cc(N2C[C@@H](C(=O)NC3CCCCC3)OC[C@H]2C)n1` in? mid

Categorize the following entry: COc1ccc(Nc2nccc(N3CCC(NC(=O)C(C)c4ccc(Cl)cc4)CC3)n2)cc1 (stereo not drawn) mid

Quick check: band for `NS(=O)(=O)c1cccc(N/C=C2\C(=O)Nc3ccc(S(=O)(=O)Cc4c(Cl)cccc4Cl)cc32)c1` low

Which class is correct for the following compound? `COc1ccc(CSc2nnc(-c3ccc4c(c3)CCO4)o2)cc1` mid

---

So I've got a bunch of molecules here, and I need their %Inh values.
Tested on: PLK3
experimental_context: concentration: 1 μM, replicates: in singlicate; n = 1
Answers are plain numbers, in %.

[[record]]
molecule = "Cn1cnc2c(N)ncnc21"
test_readout = "%Inh"
unit = "%"
numeric_readout = 0

[[record]]
molecule = "Cc1c(Cn2c3ccccc3n3c(=O)cc(N4CCOCC4)nc23)cccc1C(F)(F)F"
test_readout = "%Inh"
unit = "%"
numeric_readout = 0

[[record]]
molecule = "COC(=O)c1cccc(NC(=O)NC2CCN(c3ccnc(Nc4ccc(OC)cc4)n3)C2)c1 (stereo not drawn)"
test_readout = "%Inh"
unit = "%"
numeric_readout = 0

[[record]]
molecule = "COc1ccc(CSc2nnc(-c3ccc4nccn4c3)o2)cc1C(F)(F)F"
test_readout = "%Inh"
unit = "%"
numeric_readout = 16

[[record]]
molecule = "COc1ccc(CSc2nnc(-c3ccc4c(c3)CCO4)o2)cc1"
test_readout = "%Inh"
unit = "%"
numeric_readout = 0

[[record]]
molecule = "O=C(Nc1n[nH]c2nc(-c3ccco3)c(Br)cc12)C1CCN(Cc2ccccc2)C1.O=C(O)[C@H](O)[C@@H](O)C(=O)O (stereo not drawn)"
test_readout = "%Inh"
unit = "%"
numeric_readout = 5

[[record]]
molecule = "CC(=O)c1c(C)c2cnc(Nc3ccn(C)n3)nc2n(C2CCCC2)c1=O"
test_readout = "%Inh"
unit = "%"
numeric_readout = 0

[[record]]
molecule = "Nc1cccc(-c2ccc3c(N)n[nH]c3c2)n1"
test_readout = "%Inh"
unit = "%"
numeric_readout = 0

[[record]]
molecule = "COc1ccc(Nc2nccc(N3CCC(NC(=O)C(C)c4ccc(Cl)cc4)CC3)n2)cc1 (stereo not drawn)"
test_readout = "%Inh"
unit = "%"
numeric_readout = 0

[[record]]
molecule = "COc1cccc(C2=C(Nc3cc(Cl)c(O)c(Cl)c3)C(=O)NC2=O)c1"
test_readout = "%Inh"
unit = "%"
numeric_readout = 0


Respectfully, I request %Inh for each entry included below.
1. c1ccc(-c2ccnc3[nH]ccc23)cc1
2. Cc1c(Cn2c(C)c(C)n3c(=O)cc(N4CCOCC4)nc23)cccc1C(F)(F)F
3. CSc1ccc(-c2nc3n(c2-c2ccncc2)CCC3)cc1
4. Cc1ccc(NC(=O)Nc2ccccc2)cc1-c1ccc(C(=O)Nc2ccncc2)cc1

1. 0
2. 0
3. 6
4. 0

---

Test system: DRAK1
Construct: gene STK17A
experimental_context: concentration: 1 μM, replicates: in singlicate; n = 1
Sorting guide: entries reporting %Inh beneath 8% go in the met pile, the rest go in the not met pile.

Consider the compound `COc1ccc(Nc2nccc(NCCNC(=O)Nc3cc(C)ccc3C)n2)cc1` . Is its %Inh strictly less than 8%? met

Hi there! Is %Inh for `CNc1nc(-c2ccc3c(N)n[nH]c3c2)cc(N2C[C@@H](C(=O)NC3CCCCC3)OC[C@H]2C)n1` below 8%, do you know? not met

Given the entry `O=C1NC(=O)C(c2ccc(Cl)cc2)=C1Nc1cccc(Cl)c1` , would its reported %Inh be below 8%? met

Quick check: %Inh of `CC(C)c1cc(-c2ccc3c(N)n[nH]c3c2)nc(N)n1` under 8%? not met

Consider the compound CC(=O)c1cccc(NC(=O)NC2CCN(c3ccnc(Nc4ccc(F)cc4)n3)C2)c1 (stereo not drawn) . Is its %Inh strictly less than 8%? met

Consider the compound `Cc1nccc(-c2c(-c3ccc(F)cc3)ncn2CCCN2CCOCC2)n1.Cl` . Is its %Inh strictly less than 8%? not met

Lab note: %Inh threshold 8%. Does this compound come in strictly under it? `Nc1ncnc2occ(-c3ccc4c(c3)CCN4C(=O)Cc3cc(F)ccc3F)c12` met

Strictly below 8%: is that where %Inh of COc1ccc(Nc2nccc(N3CCC(NC(=O)C(C)c4ccc(Cl)cc4)CC3)n2)cc1 (stereo not drawn) sits? met

Consider the compound `COc1ccc(CSc2nnc(-c3ccc4nccn4c3)o2)cc1C(F)(F)F` . Is its %Inh strictly less than 8%? not met
